Hello, the source for this data is paper PMC8080530, in case you need it.

# test_system: T1, human 14-3-3σ, full length, 6His-Linker-h14-3-3 (human, UniProt P31947 1-248)
# T1 construct: 14-3-3 protein sigma, human, cloned in pProEx Htb; also called σ isoform of human 14-3-3; source: E. coli BL21 (DE3)STAR, purified (Ni-NTA, SEC); not shown: His6 with linker [residues removed], N-terminal, kept
# T1 sequence (looked up): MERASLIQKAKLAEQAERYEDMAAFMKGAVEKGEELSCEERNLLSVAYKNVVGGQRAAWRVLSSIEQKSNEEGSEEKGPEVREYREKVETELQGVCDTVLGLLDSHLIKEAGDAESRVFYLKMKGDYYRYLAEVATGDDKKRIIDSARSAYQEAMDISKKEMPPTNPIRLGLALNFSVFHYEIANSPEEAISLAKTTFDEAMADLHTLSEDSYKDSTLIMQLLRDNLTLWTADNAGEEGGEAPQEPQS
# protocol: fluorescence polarisation; FITC-labelled peptide at 60 nM (monophosphorylated) or 10 nM (doubly phosphorylated) titrated with 14-3-3ζ or 14-3-3σ in dilution series from 300 μM or 150 μM; 30 min at RT; 384-well plate; Hill fit; triplicates
# recorded_conditions: both partners purified
Non-standard residues stand in square brackets, D forms with d. Primed or numbered codes have the meaning given here. No end group written: not given here. FITC′ = fluorescein isothiocyanate tag added on resin (method C); pS = N[C@@H](COP(=O)(O)O)C(=O)O
observation_type: pKd
pKd (log units): -log10 of the concentration in mol/L.

Answer with reported pKd of {FITC′}-NLNRST[pS]VPENPK (peptide, UniProt P04150 128-140, looked up, also: phosphoserine at 134 (S5 or S7), glucocorticoid receptor (GR), human; 13-mer centred on S134; also called 13-mer peptide centered on GR S134; source: synthetic peptide) [GR_pS134, FITC-labelled 13-mer phosphopeptide]
3.96
